# MIC per record follows
- Tested on: Haemophilus influenzae (H. influenzae) 49247
- procedureDetails: Antibacterial activity, MIC, H. influenzae 49247
- Type: cell-based
- runParameters: Haemophilus influenzae; H. influenzae 49247; read-out: MIC 49247
- Excerpt: The antibacterial activity from a microbroth dilution method may be presented as the minimum inhibitory concentration (MIC in […]). The MIC value is the lowest concentration of a drug which prevents macroscopically visible bacterial growth under test conditions. […]

molecule | MIC
CCc1c(-c2ccc(N3C[C@H]4CC[C@@H](N(C)C)[C@H]4C3)cc2)[nH]c(=O)c(C(=O)O)c1O.Cl | 3.5 to 12.5 µg/mL
CCc1cc(C(=O)O)c(=O)[nH]c1-c1ccc(N2CCC[C@@H]2COC)cc1 | < 1 µg/mL
CCc1cc(C(=O)O)c(=O)[nH]c1-c1ccc(N2CC[C@@H](F)C2)cc1 | < 1 µg/mL
CCc1c(-c2ccc(N3CCC(O)C3)cc2)[nH]c(=O)c(C(=O)O)c1O (centres unmarked) | < 1 µg/mL
CCc1c(-c2ccc(N3C[C@H]4CC[C@@H](NC)[C@H]4C3)cc2)[nH]c(=O)c(C(=O)O)c1O.Cl | 3.5 to 12.5 µg/mL
CCc1cc(C(=O)O)c(=O)[nH]c1-c1ccc(N2CC3CC2CN3)cc1.O=C(O)C(F)(F)F (centres unmarked) | 12.5 to 150 µg/mL
CCc1c(-c2ccc(N3CC4CCCNC4C3)cc2)[nH]c(=O)c(C(=O)O)c1O.Cl (centres unmarked) | < 1 µg/mL
CCc1c(-c2ccc(N(C)C)c(F)c2)[nH]c(=O)c(C(=O)O)c1O | < 1 µg/mL
CCc1cc(C(=O)O)c(=O)[nH]c1-c1ccc(N2CCC(OCc3ccccc3)C2)cc1 (centres unmarked) | 1 to 3.5 µg/mL
CCc1c(-c2ccc(N3CCC(CNC)C3)cc2)[nH]c(=O)c(C(=O)O)c1O.Cl (centres unmarked) | 12.5 to 150 µg/mL
CCc1cc(C(=O)O)c(=O)[nH]c1-c1ccc(N(C)CCOC2CCCCO2)cc1 (centres unmarked) | < 1 µg/mL
CCc1c(-c2ccc(N3C[C@H]4CCC[C@@H](N)[C@H]4C3)cc2)[nH]c(=O)c(C(=O)O)c1O.O=C(O)C(F)(F)F | 3.5 to 12.5 µg/mL
CN(C)c1ccc(-c2[nH]c(=O)c(C(=O)O)c(O)c2C2CCCCC2)cc1 | < 1 µg/mL
CN(C)c1ccc(-c2[nH]c(=O)c(C(=O)O)cc2C2CC2)cc1 | < 1 µg/mL
CCc1c(-c2ccc(N3C[C@H]4CCC[C@H](NC)[C@H]4C3)cc2)[nH]c(=O)c(C(=O)O)c1O.Cl | 12.5 to 150 µg/mL
CCc1cc(C(=O)O)c(=O)[nH]c1-c1ccc(N2CCC[C@@H]2C(F)(F)F)cc1 | < 1 µg/mL
CCc1c(-c2ccc(NCCCI)cc2)[nH]c(=O)c(C(=O)O)c1O | < 1 µg/mL
CN(C)c1ccc(-c2[nH]c(=O)c(C(=O)O)cc2C2CCCCC2)cc1 | < 1 µg/mL
CN(C)c1ccc(-c2[nH]c(=O)c(C(=O)O)c(O)c2Cc2ccccc2)cc1 | < 1 µg/mL
CCc1cc(C(=O)O)c(=O)[nH]c1-c1ccc(N(C)C)cc1 | 3.5 to 12.5 µg/mL
CC(C)c1cc(C(=O)O)c(=O)[nH]c1-c1ccc(N(C)C)cc1 | < 1 µg/mL
CCc1cc(C(=O)O)c(=O)[nH]c1-c1ccc(N2CCC2)cc1 | < 1 µg/mL
CCc1c(-c2ccc(N3C[C@H]4CCN[C@H]4C3)cc2)[nH]c(=O)c(C(=O)O)c1O.Cl | 1 to 3.5 µg/mL
CCc1c(-c2ccc(N3C[C@@H]4[C@@H](N)[C@@H]4C3)cc2)[nH]c(=O)c(C(=O)O)c1O | < 1 µg/mL
CCc1cc(C(=O)O)c(=O)[nH]c1-c1ccc(N(CC)CC)cc1 | < 1 µg/mL
CCc1cc(C(=O)O)c(=O)[nH]c1-c1ccc(N(C)CCO)cc1 | < 1 µg/mL
CCc1cc(C(=O)O)c(=O)[nH]c1-c1ccc(-n2cccc2)cc1 | < 1 µg/mL
CCc1c(-c2ccc(N3C[C@H]4CC[C@@H](N)[C@H]4C3)cc2)[nH]c(=O)c(C(=O)O)c1O.Cl | 3.5 to 12.5 µg/mL
CCc1cc(C(=O)O)c(=O)[nH]c1-c1ccc(N2CCNCC2)cc1.O=C(O)C(F)(F)F | < 1 µg/mL
